// reported Ki per item
subjectOfTest: vanilloid receptor 1 (VR1/TRPV1) of the rat species (Rattus norvegicus, UniProt O35433)
Construct: The spinal column is removed from decapitated rats; from tissue; host or cells: primary cells dissociated from rat dorsal root ganglia
Sequence (O35433 whole entry): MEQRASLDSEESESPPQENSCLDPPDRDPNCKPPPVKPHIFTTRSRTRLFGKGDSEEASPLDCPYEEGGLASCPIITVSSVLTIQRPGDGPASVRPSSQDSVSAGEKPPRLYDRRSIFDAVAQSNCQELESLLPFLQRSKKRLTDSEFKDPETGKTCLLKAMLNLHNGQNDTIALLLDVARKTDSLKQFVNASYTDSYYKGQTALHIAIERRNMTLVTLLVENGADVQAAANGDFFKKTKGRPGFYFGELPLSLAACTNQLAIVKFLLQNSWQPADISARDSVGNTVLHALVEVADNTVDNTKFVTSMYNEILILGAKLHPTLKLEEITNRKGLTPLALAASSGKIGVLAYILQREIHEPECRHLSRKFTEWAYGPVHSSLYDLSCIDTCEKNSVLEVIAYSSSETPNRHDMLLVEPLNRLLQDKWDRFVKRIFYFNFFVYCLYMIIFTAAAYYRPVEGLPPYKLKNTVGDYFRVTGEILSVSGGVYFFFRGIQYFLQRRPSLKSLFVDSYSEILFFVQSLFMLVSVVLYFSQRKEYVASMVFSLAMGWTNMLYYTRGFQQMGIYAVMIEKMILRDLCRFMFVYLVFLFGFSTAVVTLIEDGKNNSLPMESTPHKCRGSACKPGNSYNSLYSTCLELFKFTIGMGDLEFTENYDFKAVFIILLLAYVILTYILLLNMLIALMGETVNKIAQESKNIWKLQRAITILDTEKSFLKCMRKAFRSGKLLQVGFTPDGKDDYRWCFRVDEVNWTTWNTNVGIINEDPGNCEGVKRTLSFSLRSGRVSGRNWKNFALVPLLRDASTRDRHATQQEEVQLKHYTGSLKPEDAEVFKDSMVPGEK
experimentSummary: FLIPR Ca2+ influx assay on rat dorsal root ganglia cells (pharmacological method I)
Format: cell-based
experimentalParameters: table 4; capsaicin; read-out: Ki (rat) Cap.
Respond with the bare value in nM.

CC(C(=O)NCc1ccc(C(F)(F)F)nc1N1CCC(c2ccccc2)CC1)c1ccc(NS(C)(=O)=O)c(F)c1 (stereo not shown) : 1.9
CC(C(=O)NCc1ccc(C(F)(F)Cl)nc1N1CCCCCC1)c1ccc(NS(C)(=O)=O)c(F)c1 (stereo not shown) : 0.7
CC(C(=O)NCc1ccc(C(F)(F)F)nc1-c1ccc(Cl)c(Cl)c1)c1ccc(NS(C)(=O)=O)c(F)c1 (stereo not shown) : 0.9
CC1CCN(c2cc(C(F)(F)F)ccc2CNC(=O)C(C)c2ccc(NS(C)(=O)=O)c(F)c2)CC1 (stereo not shown) : 0.7

INPUT: Need Ki of CC(C(=O)NCc1ccc(C(F)(F)F)nc1N1CCC(c2ccc(F)cc2)CC1)c1ccc(NS(C)(=O)=O)c(F)c1 (stereo not shown) , thanks.
OUTPUT: 3.4

INPUT: Look up Ki for this compound: Cc1ccc(N2CCN(c3nc(C(F)(F)F)ccc3CNC(=O)C(C)c3ccc(NS(C)(=O)=O)c(F)c3)CC2)cc1 (stereo not shown)
OUTPUT: 2.4

INPUT: Record request: Ki value, item CC(C(=O)NCc1ccc(C(F)(F)F)nc1N1CCC2(CC1)CC(c1ccccc1)=NO2)c1ccc(NS(C)(=O)=O)c(F)c1 (stereo not shown)
OUTPUT: 17.9

* * *

Quick list: pKi per entry.
subjectOfTest: vanilloid receptor 1 (VR1/TRPV1) of the rat species (Rattus norvegicus, UniProt O35433)
Construct: The spinal column is removed from decapitated rats; from tissue; host or cells: primary cells dissociated from rat dorsal root ganglia
experimentSummary: FLIPR Ca2+ influx assay on rat dorsal root ganglia cells (pharmacological method I)
Assay type: cell-based
experimentalParameters: Ki (rat) Cap., table 4; capsaicin
Scale explanation: pKi corresponds to minus log10 of a concentration expressed in moles per litre.

INPUT: Could you tell me which pKi is on file for CCc1ccc(COc2nc(C(F)(F)F)ccc2CNC(=O)C(C)c2ccc(NS(C)(=O)=O)c(F)c2)cc1 (stereo not shown) ?
OUTPUT: 8.92

* * *

subjectOfTest: VR1/TRPV1 receptor (Homo sapiens, UniProt Q8NER1)
Sequence (Q8NER1 whole entry): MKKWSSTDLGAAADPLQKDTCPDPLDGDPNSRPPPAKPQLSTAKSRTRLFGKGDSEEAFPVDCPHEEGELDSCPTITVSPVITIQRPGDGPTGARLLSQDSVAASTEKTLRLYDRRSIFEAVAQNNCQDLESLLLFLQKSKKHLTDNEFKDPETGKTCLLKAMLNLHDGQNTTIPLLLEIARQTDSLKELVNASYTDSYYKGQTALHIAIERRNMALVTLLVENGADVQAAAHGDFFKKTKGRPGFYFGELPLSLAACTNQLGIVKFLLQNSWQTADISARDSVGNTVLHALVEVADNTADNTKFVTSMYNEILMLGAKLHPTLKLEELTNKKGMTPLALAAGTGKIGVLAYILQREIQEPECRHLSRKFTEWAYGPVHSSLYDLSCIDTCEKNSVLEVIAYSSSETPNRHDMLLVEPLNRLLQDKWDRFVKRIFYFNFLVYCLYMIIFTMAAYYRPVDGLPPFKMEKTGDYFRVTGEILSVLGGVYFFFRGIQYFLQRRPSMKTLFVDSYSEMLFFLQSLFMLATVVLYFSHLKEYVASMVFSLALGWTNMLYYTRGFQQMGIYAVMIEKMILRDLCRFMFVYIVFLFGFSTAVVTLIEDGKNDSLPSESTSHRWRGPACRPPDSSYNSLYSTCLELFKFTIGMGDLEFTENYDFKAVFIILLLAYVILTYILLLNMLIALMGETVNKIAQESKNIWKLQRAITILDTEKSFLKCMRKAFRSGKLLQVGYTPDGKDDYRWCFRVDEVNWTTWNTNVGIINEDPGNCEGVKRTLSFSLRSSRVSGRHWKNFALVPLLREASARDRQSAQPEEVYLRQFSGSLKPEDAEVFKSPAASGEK
experimentSummary: IC50 (human) after pH stimulus
Type: cell-based
experimentalParameters: table 4
parameterMeasured: IC50 (nM)
Response body: numeric value in nM, unit text excluded.

Reference set, count: 3
CCC(=O)N(c1ccccc1)C1CCN(c2nc(C(F)(F)F)ccc2CNC(=O)C(C)c2ccc(NS(C)(=O)=O)c(F)c2)CC1 (stereo not shown) : 456
CC(C)=Cc1nc(C(F)(F)F)ccc1CNC(=O)C(C)c1ccc(NS(C)(=O)=O)c(F)c1 (stereo not shown) : 1610
CCCCOc1cc(C(F)(F)F)ccc1CNC(=O)C(C)c1ccc(NS(C)(=O)=O)c(F)c1 (stereo not shown) : 48

# ---- query compound ----
INPUT: Requested field: IC50. Item: CCCN(CCC)c1nc(C(F)(F)Cl)ccc1CNC(=O)C(C)c1ccc(NS(C)(=O)=O)c(F)c1 (stereo not shown)
OUTPUT: 37.6

Values from patent US8710233B2
